B1: tRNA (parent)
chain: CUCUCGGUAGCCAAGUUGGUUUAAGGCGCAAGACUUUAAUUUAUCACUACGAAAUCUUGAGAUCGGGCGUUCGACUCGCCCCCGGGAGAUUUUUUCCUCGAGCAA

# Variants of: B1
# test-protocol: nonsense suppression (GFP-seq) (ratio to wild type); higher = more function; SUP4oc tRNA, yeast GFP reporter sort-seq
Variants at the floor of the assay were thinned out.
The entries below are paired with their reported nonsense suppression.

The cases that follow already have their nonsense suppression on record.
A9C G61C G73C = ≤ 0.026
G10U A31G = ≤ 0.026
U2C C56A = ≤ 0.026
A13C G18C G26U G61C = ≤ 0.026
A31C G59C = ≤ 0.026

# input for lookup
What does the data say about its nonsense suppression? Entry: G7U A9U A31U
≤ 0.026
